assay system: Melanocortin receptor 4 (Mus musculus)
Sequence (P56450 whole entry): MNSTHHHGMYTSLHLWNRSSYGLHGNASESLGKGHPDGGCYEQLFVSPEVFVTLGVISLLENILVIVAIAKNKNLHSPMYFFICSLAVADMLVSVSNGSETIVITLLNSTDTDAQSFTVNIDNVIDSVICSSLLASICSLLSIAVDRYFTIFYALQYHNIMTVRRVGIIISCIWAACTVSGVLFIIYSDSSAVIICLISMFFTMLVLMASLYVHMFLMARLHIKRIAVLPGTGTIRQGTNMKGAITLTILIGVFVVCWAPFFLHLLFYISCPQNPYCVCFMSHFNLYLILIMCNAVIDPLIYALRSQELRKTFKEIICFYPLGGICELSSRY
measurement protocol: Antagonist activity at mouse melanocortin receptor 4 expressed in HEK293 cells assessed as inhibition of NDP-MSH-induced cAMP accumulation incubated for 2 hrs by cAMP Alpha-screen assay based Schild analysis
Type: functional, cell-based
condition: read-out: pA2 (converted)
Square brackets hold non-standard residues; d marks the D form. Peptide text beside a SMILES is read from it. dPhe(4-I) = N[C@H](Cc1ccc(I)cc1)C(=O)O; 2Nal = N[C@@H](Cc1ccc2ccccc2c1)C(=O)O; d2Nal = N[C@H](Cc1ccc2ccccc2c1)C(=O)O
Kindly state Kb for each of the entries shown.

Please give the measured Kb for this compound: CC(=O)N[C@H](Cc1ccc2ccccc2c1)C(=O)N[C@@H](CCCNC(=N)N)C(=O)N[C@H](Cc1ccc2ccccc2c1)C(=O)N[C@@H](CCCNC(=N)N)C(N)=O (Ac-[d2Nal]R[d2Nal]R-NH2)
5.01 nM

Follow-up entry: CC(=O)N[C@H](Cc1ccc2ccccc2c1)C(=O)N[C@H](Cc1ccc2ccccc2c1)C(=O)N[C@@H](Cc1ccc2ccccc2c1)C(=O)N[C@H](CCCCN)C(N)=O (Ac-[d2Nal][d2Nal][2Nal][dK]-NH2)
> 3160 nM

Follow-up entry: CC(=O)N[C@H](Cc1ccc(I)cc1)C(=O)N[C@H](Cc1ccc2ccccc2c1)C(=O)N[C@H](Cc1ccc2ccccc2c1)C(=O)N[C@@H](CCCNC(=N)N)C(N)=O (Ac-[dPhe(4-I)][d2Nal][d2Nal]R-NH2)
> 3160 nM

###

assay system: UniProtKB P56450
measurement protocol: Antagonist activity at mouse melanocortin receptor 4 expressed in HEK293 cells assessed as inhibition of NDP-MSH-induced cAMP accumulation incubated for 2 hrs by cAMP Alpha-screen assay based Schild analysis
Format: functional, cell-based
condition: read-out: pA2 (converted)
Square brackets hold non-standard residues; d marks the D form. Peptide text beside a SMILES is read from it. dPhe(4-I) = N[C@H](Cc1ccc(I)cc1)C(=O)O; d2Nal = N[C@H](Cc1ccc2ccccc2c1)C(=O)O
property label: Kb (µM)
// return numeric value only (unit: µM, not printed)

For the record CC(=O)N[C@H](Cc1ccc2ccccc2c1)C(=O)N[C@@H](CCCNC(=N)N)C(=O)N[C@@H](Cc1c[nH]c2ccccc12)C(=O)N[C@H](Cc1ccc2ccccc2c1)C(N)=O (Ac-[d2Nal]RW[d2Nal]-NH2) , what value of Kb is listed for UniProtKB P56450?
0.1

Follow-up entry: CC(=O)N[C@H](Cc1ccc(I)cc1)C(=O)N[C@H](Cc1ccc2ccccc2c1)C(=O)N[C@@H](Cc1c[nH]c2ccccc12)C(=O)N[C@@H](CCCNC(=N)N)C(N)=O
2.51

Follow-up entry: CC(=O)N[C@H](Cc1ccc(I)cc1)C(=O)N[C@H](Cc1ccc2ccccc2c1)C(=O)N[C@@H](Cc1c[nH]c2ccccc12)C(=O)N[C@H](CCCCN)C(N)=O (Ac-[dPhe(4-I)][d2Nal]W[dK]-NH2)
0.251

###

assay system: Melanocyte-stimulating hormone receptor (Mus musculus)
measurement protocol: Agonist activity at mouse MC1R expressed in HEK293 cells assessed as induction of cAMP level at 100 uM incubated for 2 hr by alphaScreen assay relative to NDP-MSH
Assay type: functional, cell-based
condition: filed as agonist
Square brackets hold non-standard residues; d marks the D form. Peptide text beside a SMILES is read from it. Phe(4-I) = N[C@@H](Cc1ccc(I)cc1)C(=O)O; dPhe(4-I) = N[C@H](Cc1ccc(I)cc1)C(=O)O; 2Nal = N[C@@H](Cc1ccc2ccccc2c1)C(=O)O; d2Nal = N[C@H](Cc1ccc2ccccc2c1)C(=O)O
property label: Activity
Show the value, then the unit it is measured in.

Please give the measured Activity for this compound: CC(=O)N[C@H](Cc1ccc2ccccc2c1)C(=O)N[C@H](Cc1ccc2ccccc2c1)C(=O)N[C@@H](Cc1ccc2ccccc2c1)C(=O)N[C@H](CCCCN)C(N)=O (Ac-[d2Nal][d2Nal][2Nal][dK]-NH2)
45%

Follow-up entry: CC(=O)N[C@H](Cc1ccc(I)cc1)C(=O)N[C@H](Cc1ccc2ccccc2c1)C(=O)N[C@H](Cc1ccc(I)cc1)C(=O)N[C@@H](CCCNC(=N)N)C(N)=O (Ac-[dPhe(4-I)][d2Nal][dPhe(4-I)]R-NH2)
40%

Follow-up entry: CC(=O)N[C@H](Cc1ccc(I)cc1)C(=O)N[C@@H](CCCNC(=N)N)C(=O)N[C@H](Cc1ccc2ccccc2c1)C(=O)N[C@H](Cc1ccc2ccccc2c1)C(N)=O (Ac-[dPhe(4-I)]R[d2Nal][d2Nal]-NH2)
80%

Follow-up entry: CC(=O)N[C@@H](Cc1ccc(I)cc1)C(=O)N[C@@H](Cc1ccc2ccccc2c1)C(=O)N[C@@H](Cc1ccc(I)cc1)C(=O)N[C@@H](CCCNC(=N)N)C(N)=O (Ac-[Phe(4-I)][2Nal][Phe(4-I)]R-NH2)
60%

Follow-up entry: CC(=O)N[C@H](Cc1ccc2ccccc2c1)C(=O)N[C@H](Cc1ccc2ccccc2c1)C(=O)N[C@H](Cc1ccc2ccccc2c1)C(=O)N[C@H](CCCCN)C(N)=O (Ac-[d2Nal][d2Nal][d2Nal][dK]-NH2)
55%

Follow-up entry: CC(=O)N[C@H](Cc1ccc(I)cc1)C(=O)N[C@@H](CCCNC(=N)N)C(=O)N[C@@H](Cc1c[nH]c2ccccc12)C(=O)N[C@H](Cc1ccc2ccccc2c1)C(N)=O (Ac-[dPhe(4-I)]RW[d2Nal]-NH2)
45%
